# Test system: UO-31
# EXPERIMENTAL PROTOCOL: NCI tumour cell line growth inhibition, 48 h
Activity calls are given as the source filed them. No stated cut-off is given here; in the data, active = GI50 up to about 1.1 µM and inactive = higher.
Outcomes: true (1) for active, false (0) for inactive

{"MOLECULE": "COc1ccc2c(C(=O)O)cc3ccccc3c2c1OC", "ASSIGNED CATEGORY": "false (0)"}
{"MOLECULE": "CC(C)Oc1c(-c2ccc(F)cc2)c(O)c2c3c1oc(=O)n3C=CC2C (configuration not stated)", "ASSIGNED CATEGORY": "false (0)"}
{"MOLECULE": "COC(=O)[C@H](C)NC(=O)[C@H](NS(=O)(=O)c1nc2ccccc2s1)c1ccccc1", "ASSIGNED CATEGORY": "false (0)"}
{"MOLECULE": "COc1cc2c(c(OC)c1OC)-c1ccc(SC)c(=O)cc1[C@@H](NC(=O)c1ccc([N+](=O)[O-])cc1)CC2", "ASSIGNED CATEGORY": "true (1)"}
{"MOLECULE": "Cc1cc2c(=O)c3ccc(Cl)cc3[nH]c2c(C(=O)O)c1C", "ASSIGNED CATEGORY": "false (0)"}
{"MOLECULE": "C/C(=N\\N=C(/S)N1CC2CCC(CC2)C1)c1cccc[n+]1[O-]", "ASSIGNED CATEGORY": "false (0)"}
{"MOLECULE": "COc1cc(/C=C/C=C2\\CC/C(=C\\C=C\\c3ccc(O)c(OC)c3)C2=O)ccc1O", "ASSIGNED CATEGORY": "false (0)"}
{"MOLECULE": "CN(C)CCNC(=O)c1cccc2ccc(-c3ccc(-c4ccccc4)cc3)nc12", "ASSIGNED CATEGORY": "false (0)"}
{"MOLECULE": "Cc1nc2ccccc2[nH]/c1=N/Nc1ccccc1", "ASSIGNED CATEGORY": "false (0)"}
{"MOLECULE": "CC(=O)OC1(C#N)CC2OC1C1NC21 (configuration not stated)", "ASSIGNED CATEGORY": "false (0)"}
{"MOLECULE": "O=C1C(Cl)N(c2ccccc2)C1c1c[nH]c2ccccc12 (configuration not stated)", "ASSIGNED CATEGORY": "false (0)"}
{"MOLECULE": "CC(=O)C1(O)CCC2(O)C3(O)CC=C4CC(O)CCC4(C)C3CC(OC(=O)c3ccc(O)cc3)C12C.COC1CC(OC2C(C)OC(OC3C(C)OC(OC4CCC5(C)C(=CCC6(O)C5CC(OC(=O)c5ccc(O)cc5)C5(C)C(O)(C(C)=O)CCC65O)C4)CC3OC)CC2OC)OC(C)C1O (configuration not stated)", "ASSIGNED CATEGORY": "false (0)"}
{"MOLECULE": "CC1=C(C)C(=O)c2c(cc3ccc4ccccc4n23)C1=O", "ASSIGNED CATEGORY": "false (0)"}
{"MOLECULE": "Cn1cnc([N+](=O)[O-])c1Sc1nc2cccnc2s1", "ASSIGNED CATEGORY": "false (0)"}
{"MOLECULE": "O=C1c2ccccc2-c2nc3ccncc3n21", "ASSIGNED CATEGORY": "false (0)"}
{"MOLECULE": "Cc1ccc(/C(O)=C/c2nc3ccccc3oc2=O)cc1", "ASSIGNED CATEGORY": "false (0)"}
{"MOLECULE": "CN(C)Cc1cc(C(=O)/C=C/c2ccc(Cl)c(Cl)c2)cc(CN(C)C)c1O", "ASSIGNED CATEGORY": "false (0)"}
{"MOLECULE": "CNn1c(-c2ccccc2)n[nH]c1=O", "ASSIGNED CATEGORY": "false (0)"}
{"MOLECULE": "COc1ccc2c(c1)CC1Cc3ccccc3CCN1C2 (configuration not stated)", "ASSIGNED CATEGORY": "false (0)"}
{"MOLECULE": "CN/N=C(\\C)CC(=O)Nc1cccc(Cl)c1C", "ASSIGNED CATEGORY": "false (0)"}
{"MOLECULE": "O=C1Nc2ccccc2/C1=N/NC(=O)c1ccccc1O", "ASSIGNED CATEGORY": "false (0)"}
{"MOLECULE": "NC1(C(=O)O)CCCC1 [CYCLOLEUCINE]", "ASSIGNED CATEGORY": "false (0)"}
